- Tested on: Wolbachia pipientis
- runDescription: Anti-Wolbachia Cell-Based Screen
- Type: functional
- Parameters: scale not given: in the data most compounds retested in dose-response had high values
- testContext: 5 µM
In all, about 48,000 compounds went through this assay and about 13,000 (27%) showed an effect of 50% or more. The list shows a part of the results.
Measured Percent Effect by item

- molecule: "NC(=O)NCC(=O)N1CCC2(CC1)c1ccccc1CC2O (stereo not given)"
  unitOfMeasure: "%"
  Percent Effect: -7.297
- molecule: "Cc1sc2nc(CCN)nc(N3CCN(S(C)(=O)=O)CC3)c2c1C"
  unitOfMeasure: "%"
  Percent Effect: 5.151
- molecule: "Cc1cccc(S(=O)(=O)N2C[C@H]3C[C@H](C(=O)NC4CCC4)[C@@H](C2)O3)c1"
  unitOfMeasure: "%"
  Percent Effect: -10.53
- molecule: "CC(C)c1nccn1C1CCCN(C(=O)c2cn3cccnc3n2)C1 (stereo not given)"
  unitOfMeasure: "%"
  Percent Effect: 106.5
- molecule: "CC(=O)c1c(F)cccc1N1CCC(CS(N)(=O)=O)CC1"
  unitOfMeasure: "%"
  Percent Effect: -2.597
- molecule: "COCCN(C)CC(=O)N1C[C@H]2CC[C@@H]1CN(C(=O)c1ccncc1)C2"
  unitOfMeasure: "%"
  Percent Effect: 3.629
- molecule: "COCC(=O)N1CCC2(CC1)CC(OC)CO2 (stereo not given)"
  unitOfMeasure: "%"
  Percent Effect: -10.72
- molecule: "CC(C)[C@]1(O)CN(C(=O)COCC(N)=O)C[C@H]1C"
  unitOfMeasure: "%"
  Percent Effect: 89.06
- molecule: "Cc1cccc(S(=O)(=O)N2C[C@@H]3C[C@@H](c4nc(C)no4)O[C@@H]3C2)c1"
  unitOfMeasure: "%"
  Percent Effect: 113.1
- molecule: "CC(C)[C@]1(O)CN(C(=O)CNC(N)=O)C[C@H]1C"
  unitOfMeasure: "%"
  Percent Effect: 90.92
- molecule: "C[C@@H]1CN(C(=O)CCCN2CCOCC2)C[C@@]1(O)C1CC1"
  unitOfMeasure: "%"
  Percent Effect: -18.09
- molecule: "Cn1cnc2c1C(COCC1CC1)CN(C(=O)c1cscn1)C2.O=C(O)C(F)(F)F (stereo not given)"
  unitOfMeasure: "%"
  Percent Effect: -8.988
- molecule: "Cc1cccc(S(=O)(=O)N2C[C@@H]3OCCN(C(C)C)[C@@H]3C2)c1"
  unitOfMeasure: "%"
  Percent Effect: -15.31
- molecule: "Cn1cnc2c1C(COCC1CC1)CN(C(=O)Cc1ccsc1)C2.O=C(O)C(F)(F)F (stereo not given)"
  unitOfMeasure: "%"
  Percent Effect: 12.67
- molecule: "Cc1cc(C)n(C2CCCN(C(=O)c3cn4cccnc4n3)C2)n1 (stereo not given)"
  unitOfMeasure: "%"
  Percent Effect: 140.9
